Kd values for the binders below.
Biological target: T1, IL-18 WT/IL-18Rα WT complex (SPR analyte) (human, UniProt Q14116 37-193; Q13478 20-329)
T1 construct: human interleukin-18, mature IL-18 (residues 1-157); numbers count on: the mature protein; human IL-18 receptor α, extracellular domains, residues 20-329 of NM_003855, printed as un-tagged; also called IL-18/IL-18Rα binary complex; IL-18 WT(control); source: IL-18: E. coli BL21(DE3), purified; IL-18Rα: silkworm larvae haemolymph, purified; un-tagged IL-18Rα saturated with 500 nM IL-18
Assay: SPR; BIAcore 3000, 25 °C, C-terminal 6xHis IL-18Rβ immobilised (~100 RU) on an NTA sensor chip, un-tagged IL-18Rα saturated with 500 nM IL-18 as analyte in HBS-P
Conditions: both partners purified
measuredMetric: Kd (nM)

INSERT INTO measurements (binder, measuredmetric, displayunit, reported) VALUES
  ('IL-18Rβ E210A, C-terminal 6xHis tagged extracellular domains (residues 15-356), for SPR (domain or fragment, human, UniProt O95256-1 15-356, looked up, human IL-18 receptor β, extracellular domains, residues 15-356 of NM_003853; In the luciferase reporter assay the same mutation stood in full-length IL-18Rβ (pcDNA3.1+) expressed in HEK293 cells; source: silkworm (B. mori) larvae, BmNPV bacmid, haemolymph, purified as from Sf9; not shown: 6xHis, C-terminal, kept) ERIKGFNISGCSTKKLLWTYSTRSEEEFVLFCDLPEPQKSHFCHRNRLSPKQVPEHLPFMGSNDLSDVQWYQQPSNGDPLEDIRKSYPHIIQDKCTLHFLTPGVNNSGSYICRPKMIKSPYDVACCVKMILEVKPQTNASCEYSASHKQDLLLGSTGSISCPSLSCQSDAQSPAVTWYKNGKLLSVERSNRIVVDAVYDYHQGTYVCDYTQSDTVSSWTVRAVVQVRTIVGDTKLKPDILDPVEDTLEVELGKPLTISCKARFGFERVFNPVIKWYIKDSDLEWEVSVPEAKSIKSTLKDEIIERNIILEKVTQRDLRRKFVCFVQNSIGNTTQSVQLKEKR', 'Kd', 'nM', 327),
  ('C-terminal 6xHis tagged IL-18Rβ extracellular domains (residues 15-356), for SPR (domain or fragment, human, UniProt O95256-1 15-356, looked up, human IL-18 receptor β, extracellular domains, residues 15-356 of NM_003853; also called IL-18Rβ WT; IL-18Rβ WT (control); source: silkworm (B. mori) larvae, BmNPV bacmid, haemolymph, purified as from Sf9; not shown: 6xHis, C-terminal, kept) ERIKGFNISGCSTKKLLWTYSTRSEEEFVLFCDLPEPQKSHFCHRNRLSPKQVPEHLPFMGSNDLSDVQWYQQPSNGDPLEDIRKSYPHIIQDKCTLHFLTPGVNNSGSYICRPKMIKSPYDVACCVKMILEVKPQTNASCEYSASHKQDLLLGSTGSISCPSLSCQSDAQSPAVTWYKNGKLLSVERSNRIVVDEVYDYHQGTYVCDYTQSDTVSSWTVRAVVQVRTIVGDTKLKPDILDPVEDTLEVELGKPLTISCKARFGFERVFNPVIKWYIKDSDLEWEVSVPEAKSIKSTLKDEIIERNIILEKVTQRDLRRKFVCFVQNSIGNTTQSVQLKEKR', 'Kd', 'nM', 15),
  ('IL-18Rβ K313A, C-terminal 6xHis tagged extracellular domains (residues 15-356), for SPR (domain or fragment, human, UniProt O95256-1 15-356, looked up, human IL-18 receptor β, extracellular domains, residues 15-356 of NM_003853; In the luciferase reporter assay the same mutation stood in full-length IL-18Rβ (pcDNA3.1+) expressed in HEK293 cells; source: silkworm (B. mori) larvae, BmNPV bacmid, haemolymph, purified as from Sf9; not shown: 6xHis, C-terminal, kept) ERIKGFNISGCSTKKLLWTYSTRSEEEFVLFCDLPEPQKSHFCHRNRLSPKQVPEHLPFMGSNDLSDVQWYQQPSNGDPLEDIRKSYPHIIQDKCTLHFLTPGVNNSGSYICRPKMIKSPYDVACCVKMILEVKPQTNASCEYSASHKQDLLLGSTGSISCPSLSCQSDAQSPAVTWYKNGKLLSVERSNRIVVDEVYDYHQGTYVCDYTQSDTVSSWTVRAVVQVRTIVGDTKLKPDILDPVEDTLEVELGKPLTISCKARFGFERVFNPVIKWYIKDSDLEWEVSVPEAKSIKSTLADEIIERNIILEKVTQRDLRRKFVCFVQNSIGNTTQSVQLKEKR', 'Kd', 'nM', 109),
  ('IL-18Rβ Y214A, C-terminal 6xHis tagged extracellular domains (residues 15-356), for SPR (domain or fragment, human, UniProt O95256-1 15-356, looked up, human IL-18 receptor β, extracellular domains, residues 15-356 of NM_003853; source: silkworm (B. mori) larvae, BmNPV bacmid, haemolymph, purified as from Sf9; not shown: 6xHis, C-terminal, kept) ERIKGFNISGCSTKKLLWTYSTRSEEEFVLFCDLPEPQKSHFCHRNRLSPKQVPEHLPFMGSNDLSDVQWYQQPSNGDPLEDIRKSYPHIIQDKCTLHFLTPGVNNSGSYICRPKMIKSPYDVACCVKMILEVKPQTNASCEYSASHKQDLLLGSTGSISCPSLSCQSDAQSPAVTWYKNGKLLSVERSNRIVVDEVYDAHQGTYVCDYTQSDTVSSWTVRAVVQVRTIVGDTKLKPDILDPVEDTLEVELGKPLTISCKARFGFERVFNPVIKWYIKDSDLEWEVSVPEAKSIKSTLKDEIIERNIILEKVTQRDLRRKFVCFVQNSIGNTTQSVQLKEKR', 'Kd', 'nM', 50),
  ('IL-18Rβ L167A, C-terminal 6xHis tagged extracellular domains (residues 15-356), for SPR (domain or fragment, human, UniProt O95256-1 15-356, looked up, human IL-18 receptor β, extracellular domains, residues 15-356 of NM_003853; source: silkworm (B. mori) larvae, BmNPV bacmid, haemolymph, purified as from Sf9; not shown: 6xHis, C-terminal, kept) ERIKGFNISGCSTKKLLWTYSTRSEEEFVLFCDLPEPQKSHFCHRNRLSPKQVPEHLPFMGSNDLSDVQWYQQPSNGDPLEDIRKSYPHIIQDKCTLHFLTPGVNNSGSYICRPKMIKSPYDVACCVKMILEVKPQTNASCEYSASHKQDLLAGSTGSISCPSLSCQSDAQSPAVTWYKNGKLLSVERSNRIVVDEVYDYHQGTYVCDYTQSDTVSSWTVRAVVQVRTIVGDTKLKPDILDPVEDTLEVELGKPLTISCKARFGFERVFNPVIKWYIKDSDLEWEVSVPEAKSIKSTLKDEIIERNIILEKVTQRDLRRKFVCFVQNSIGNTTQSVQLKEKR', 'Kd', 'nM', 33);

Numbers sourced from paper PMC4275594.
